Target: T1, GFP-9S library array, motif 4 ND N98H;D124T (synthetic construct, N98H;D124T)
T1 chain: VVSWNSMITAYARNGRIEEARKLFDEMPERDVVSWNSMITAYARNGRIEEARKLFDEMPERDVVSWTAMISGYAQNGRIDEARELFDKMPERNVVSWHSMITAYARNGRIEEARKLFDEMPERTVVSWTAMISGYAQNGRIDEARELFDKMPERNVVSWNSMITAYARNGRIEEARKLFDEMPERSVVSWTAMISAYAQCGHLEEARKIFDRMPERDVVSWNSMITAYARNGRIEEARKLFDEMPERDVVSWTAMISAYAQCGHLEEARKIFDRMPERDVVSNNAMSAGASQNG
Experiment: high-throughput RNA pulldown from lysate on Ni-NTA beads; HRP: 50 mM Tris pH 8, 150 mM NaCl, 1 mM beta-mercaptoethanol, 50 ug/ml BSA, 3 ug/ml yeast RNA, 0.5% heparin; ITC and FP: Tris pH 8, 200 mM KCl, 5% glycerol; MST: 50 mM Tris pH 8, 200 mM NaCl, 1 mM DTT, BSA, heparin, 0.05% Tween 20
Details: tags: N-terminal His-eGFP; label: 5' Cy5
Some binders, each annotated with its measured Kd.
Please reply with the bare figure in nM and do not write the unit itself.

Prompt: Field request: Kd | item: AUUAGACGUGA (ssRNA) [Cy5-rpoA-G]
Response: 75

Prompt: Field request: Kd | item: AUUACACGUGA (ssRNA) [Cy5-rpoA]
Response: 50.9
